Molecular target: Ubiquitin carboxyl-terminal hydrolase 21 (Homo sapiens)
Sequence (Q9UK80 whole entry): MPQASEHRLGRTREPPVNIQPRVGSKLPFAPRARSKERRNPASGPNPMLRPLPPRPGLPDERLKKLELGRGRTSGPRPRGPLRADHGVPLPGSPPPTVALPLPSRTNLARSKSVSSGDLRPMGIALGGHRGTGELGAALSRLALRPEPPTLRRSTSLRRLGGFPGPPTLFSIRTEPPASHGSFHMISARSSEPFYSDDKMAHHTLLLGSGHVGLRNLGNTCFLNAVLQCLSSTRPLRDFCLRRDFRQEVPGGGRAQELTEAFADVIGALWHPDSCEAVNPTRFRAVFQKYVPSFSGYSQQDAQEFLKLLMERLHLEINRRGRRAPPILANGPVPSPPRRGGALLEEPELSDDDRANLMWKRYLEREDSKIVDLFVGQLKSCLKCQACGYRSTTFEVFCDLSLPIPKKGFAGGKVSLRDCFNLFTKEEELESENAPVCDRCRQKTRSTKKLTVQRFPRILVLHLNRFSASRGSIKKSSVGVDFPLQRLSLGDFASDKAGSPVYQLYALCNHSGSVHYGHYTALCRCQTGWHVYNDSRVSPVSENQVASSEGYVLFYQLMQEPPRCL
pIC50: −log10 of the molar value.
Reported property: pIC50

>>> result("Cc1cc(Cl)cc(-c2ccnc3cc(CN4C(=O)C5C(C4=O)C5(C)C)sc23)c1O[C@@H]1CCNC[C@@H]1C (stereo partly specified)")
"< 5.00"
